B1: DnaJ homolog subfamily C member 2, residues 451 to 503; numbered along this chain, Q99543 (parent)
chain: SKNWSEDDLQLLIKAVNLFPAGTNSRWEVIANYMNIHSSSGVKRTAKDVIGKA

Variants of: B1
Test: abundance fitness (aPCA) (normalised: wild type 0, dead -1); higher = more abundant; growth selection in yeast, the domain comes from the species named
Conditions: Homo sapiens
Would you please tag the item Met when its abundance fitness is -0.2 or above, and Not met when it is below?

Please review the entries below; each comes with its answer.
Variant notation: S40L
Assigned label: Not met

Variant notation: S39K
Assigned label: Met

Variant notation: D7V
Assigned label: Met

Variant notation: A15M
Assigned label: Not met

Variant notation: V49L
Assigned label: Not met

Variant notation: A31P
Assigned label: Not met

Prompt: Check if abundance fitness >= -0.2 (inclusive). Item: E6K
Response: Not met

Prompt: Item L12V with abundance fitness of -0.2 or above?
Response: Not met

Prompt: Please check the record A21N and state if its abundance fitness is at or above -0.2.
Response: Not met
